Origin of values: PubChem BioAssay

# Test system: Plasmodium falciparum Sir2 (PF13_0152, Sir2A)
# TEST NAME: pfSir2 binders on small-molecule microarrays, primary screen, biochemical, small-molecule microarray, 635 nm fluorescence (AID 1098);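 note: score merges spot fluorescence intensity with its signal-to-noise ratio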
# RUN CONDITIONS: small-molecule microarray binding, fluorescence 635 nm; higher = more signal
Label t when composite z-score is at or above 0.8; otherwise label f.

Solved cases (5 shown):
O=C1N(Cc2ccccc2)c2ccccc2C[C@@]12N=C(c1ccc(OCCCO)cc1)O[C@H]2c1ccccc1: f
C=CCNC(=O)[C@H]1[C@@H]2C(=O)O[C@@H](c3ccccc3)[C@@H](c3ccccc3)N2[C@@H](c2ccc(OCCO)cc2)[C@]12C(=O)Nc1ccc(C#Cc3ccc(OC)cc3)cc12: t
CC[C@H]1C2=C3C(CC[C@H]4C(OCc5ccc(F)cc5C(F)(F)F)OC[C@](C)([C@@H]34)N(C(=O)OC(C)(C)C)C2)C(COC(C)=O)C1COC(C)=O (some centres not stated): f
C=CCOC(=O)[C@H]1[C@@H]2C(=O)O[C@@H](c3ccccc3)[C@@H](c3ccccc3)N2[C@@H](c2ccc(OCCOC(=O)[C@H]3C[C@H]4C(=O)NCC(=O)N4[C@H]3c3cccc(OCCO)c3)cc2)[C@]12C(=O)Nc1ccc(I)cc12: t
CCCC[C@@H](O)C1=C(C)Cn2c(=O)n(-c3ccccc3)c(=O)n2[C@H]1CO: f

Now for another entry.
Quick check: does CCOC(=O)C1=CCC(c2cccn2C(=O)OC(C)(C)C)N(S(=O)(=O)c2ccc(C)cc2)C1 (configuration not stated) have composite z-score greater than or equal to 0.8?
t
